biological target: hP2X3 (human Purinergic P2X receptors subtype 3), clone A (Homo sapiens); test: hP2X3 FLIPR calcium (Fluo-4) antagonist assay, clone A; conditions: Human P2X3 FLIPR Clone A Mean IC50 (nM), RLE cells expressing hP2X3 clone A (AB016608); agonist 500 nM α,β-methylene-ATP
Experimental endpoint: IC50 (nM)

• CC(=O)N1CCN(c2nc(N[C@H](C)c3ccc(C4CC4)cc3)c3c(n2)C(=O)N(C(C)C)C3)CC1 = 102
• CC(=O)N1CCN(c2nc(N[C@H](C)c3cc(F)cc(C(F)(F)F)c3)c3c(n2)C(=O)N(C(C)C)C3)CC1 = 101
• COc1ccc(C2CCCN2c2nc(N3CCN(C(C)=O)CC3)nc3c2CN(C(C)C)C3=O)cc1C (stereo not drawn) = 824

====

target: hP2X3 (human Purinergic P2X receptors subtype 3), clone B (Homo sapiens, UniProt P56373); assay: hP2X3 FLIPR calcium (Fluo-4) antagonist assay, clone B; conditions: Human P2X3 FLIPR Clone B IC50 (nM), RLE cells expressing hP2X3 clone B (NM_002559); agonist 500 nM α,β-methylene-ATP
Listing of recorded IC50 by entry.
Experimental endpoint: IC50 (nM)

- CC(C)N1Cc2c(NCc3cnc4ccccc4c3)nc(N3CCN(C(=O)N(C)C)CC3)nc2C1=O: 5800
- CC(=O)N1CCN(c2nc(NC(C)c3ccc(CC(C)C)cc3)c3c(n2)C(=O)N(C(C)C)C3)CC1 (stereo not drawn): 160
- CC(=O)N1CCN(c2nc3c(c(N4CCCC4c4ccc(F)cc4)n2)CN(C(C)C)C3=O)CC1 (stereo not drawn): 3600

====

Target: hP2X3 (human Purinergic P2X receptors subtype 3), clone B (Homo sapiens)
Sequence (P56373 1-397): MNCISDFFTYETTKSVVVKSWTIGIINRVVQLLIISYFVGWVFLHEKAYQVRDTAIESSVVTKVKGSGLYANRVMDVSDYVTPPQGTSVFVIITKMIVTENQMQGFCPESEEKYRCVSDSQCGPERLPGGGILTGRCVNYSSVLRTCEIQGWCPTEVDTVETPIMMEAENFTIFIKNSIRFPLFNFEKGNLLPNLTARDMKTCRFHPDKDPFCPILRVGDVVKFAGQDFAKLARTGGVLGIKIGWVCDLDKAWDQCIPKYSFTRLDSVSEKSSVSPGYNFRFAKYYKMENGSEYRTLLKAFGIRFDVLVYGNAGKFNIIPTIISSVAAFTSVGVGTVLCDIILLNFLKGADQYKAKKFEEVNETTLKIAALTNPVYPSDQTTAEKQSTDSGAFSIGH
Assay: hP2X3 FLIPR calcium (Fluo-4) antagonist assay, clone B
Conditions: Human P2X3 FLIPR Clone B IC50 (nM), RLE cells expressing hP2X3 clone B (NM_002559); agonist 500 nM α,β-methylene-ATP
Category | rule: reported IC50 within range, see b0 (below 400 nM), b1 (400 nM to below 4000 nM), b2 (4000 nM or more)

• CC(=O)N1CCN(c2nc(N[C@@H](C)c3ccc4ncccc4c3)c3c(n2)C(=O)N(C(C)C)C3)CC1 = b2
• COc1ccc(CC2CCCN2c2nc(N3CCN(C(C)=O)CC3)nc3c2CN(C(C)C)C3=O)cc1 (single isomer, unassigned) [Example 288] = b1
• CC(C)N1Cc2c(NC(c3ccccc3)c3ccccc3)nc(NCCN(C)C)nc2C1=O = b0
• CCN(Nc1nc(N2CCN(C(C)=O)CC2)nc2c1CN(C(C)C)C2=O)c1ccc(C)cc1 = b2
• CC(=O)N1CCN(c2nc(N[C@H](C)c3ccc(C(F)(F)F)cc3F)c3c(n2)C(=O)N(C(C)C)C3)CC1 = b0
• CC(=O)N1CCN(c2nc3c(c(N4CCC[C@@H]4C(=O)OCc4ccc(Cl)cc4)n2)CN(C(C)C)C3=O)CC1 = b1
• CCOc1ccc(C2CCCN2c2nc(N3CCN(C(C)=O)CC3)nc3c2CN(C(C)C)C3=O)cc1 (centres unmarked) = b0
• CCCN1Cc2c(NC(c3ccccc3)c3ccccc3)nc(N3CCOCC3)nc2C1=O = b1
• CC(=O)NC1CCN(c2nc(NCc3cnc4ccccc4c3)c3c(n2)C(=O)N(C(C)C)C3)C1 (centres unmarked) = b2
• CCN1CCN(c2nc(NC(C)(C)Cc3ccc(Cl)cc3)c3c(n2)C(=O)N(C(C)C)C3)CC1 = b1
• CC(=O)N1CCN(c2nc3c(c(N4CCC[C@@H]4C(=O)NC4CCCCC4)n2)CN(C(C)C)C3=O)CC1 = b1
• COc1ccccc1CC(C)(C)Nc1nc(N2CCN(C(C)=O)CC2)nc2c1CN(C(C)C)C2=O = b2
• CC(=O)N1CCN(c2nc(NCc3ccc4c(c3)CCCN4C)c3c(n2)C(=O)N(C(C)C)C3)CC1 = b2
• CC(=O)N1CCN(c2nc(N[C@H](C)c3ccc4c(c3)CCCC4)c3c(n2)C(=O)N(C(C)C)C3)CC1 = b0
• CC(=O)N1CCN(c2nc(N[C@@H]3CCC[C@H]3c3ccc(Cl)cc3)c3c(n2)C(=O)N(C(C)C)C3)CC1 (racemic) = b1
• CC(C)N1Cc2c(NC(c3ccc(F)cc3)c3ccc(F)cc3)nc(N3CC4CC3CN4C)nc2C1=O (centres unmarked) = b0

====

molecular target: hP2X3 (human Purinergic P2X receptors subtype 3), clone B (Homo sapiens, UniProt P56373); experiment: hP2X3 FLIPR calcium (Fluo-4) antagonist assay, clone B; settings: Human P2X3 FLIPR Clone B IC50 (nM), RLE cells expressing hP2X3 clone B (NM_002559); agonist 500 nM α,β-methylene-ATP
Response field label: string, one of Satisfied (IC50 strictly below 500 nM) or Not satisfied.

• CC(C)N1Cc2c(NC(c3ccc(F)cc3)c3ccc(F)cc3)nc(NCCN(C)C)nc2C1=O = Satisfied
• CC(=O)N1CCN(c2nc(NC(C)Cc3ccc(F)cc3)c3c(n2)C(=O)N(C(C)C)C3)CC1 (centres unmarked) = Not satisfied
• CCOc1ccc([C@@H](C)Nc2nc(N3CCN(C(C)=O)CC3)nc3c2CN(C(C)C)C3=O)c(OC)c1 = Satisfied
• CC(=O)N1CCN(c2nc(NCc3cc(C)c4ncccc4c3)c3c(n2)C(=O)N(C(C)C)C3)CC1 = Satisfied
• CC(=O)N1CCN(c2nc(NCc3cc(-c4ccccc4)nn3C)c3c(n2)C(=O)N(C(C)C)C3)CC1 = Satisfied
• CC(=O)N1CCN(c2nc3c(c(N4CCCC4c4cnc5ccccc5c4)n2)CN(C(C)C)C3=O)CC1 (single isomer, unassigned) [Example 282] = Not satisfied
• Cc1ccc(C(Nc2nc(N3CCN(C(C)C)CC3)nc3c2CN(C(C)C)C3=O)c2ccccc2)cc1 (centres unmarked) = Satisfied
• CC(C)C(=O)N1CCN(c2nc(NC(c3ccccc3)c3ccccc3)c3c(n2)C(=O)N(C(C)C)C3)CC1 = Satisfied
• CC(=O)N1CCN(c2nc(NC(C)(C)Cc3ccc(F)cc3)c3c(n2)C(=O)N(C2CCOCC2)C3)CC1 = Not satisfied
• CC(C)N1Cc2c(NC(c3ccccc3)c3ccc(Cl)cc3)nc(N3CCOCC3)nc2C1=O (centres unmarked) = Satisfied

====

target: hP2X3 (human Purinergic P2X receptors subtype 3), clone B (Homo sapiens, UniProt P56373); test: hP2X3 FLIPR calcium (Fluo-4) antagonist assay, clone B; settings: Human P2X3 FLIPR Clone B IC50 (nM), RLE cells expressing hP2X3 clone B (NM_002559); agonist 500 nM α,β-methylene-ATP
The label T is reserved for IC50 strictly under 100 nM; F covers values equal to or above it.

• CC(=O)N1CCN(c2nc(NCc3cc4ccccc4c(N(C)C)n3)c3c(n2)C(=O)N(C(C)C)C3)CC1 = T
• CC(C)N1Cc2c(NC(C)(C)Cc3ccc(Cl)cc3)nc(N3C[C@@H](C)O[C@@H](C)C3)nc2C1=O = F
• CCC(C)N1Cc2c(NCc3cc4ccccc4cn3)nc(N3CCN(C(C)=O)CC3)nc2C1=O (single isomer, unassigned; (+)) [Example 310] = T
• CC(C)N1Cc2c(NCc3cnc4ccccc4c3)nc(N3CCn4cnnc4C3)nc2C1=O = F
• CCOc1ccc(CC(C)(C)Nc2nc(N3CCN(C(C)=O)CC3)nc3c2CN(C(C)C)C3=O)cc1 = F
• O=C1c2nc(N3CCOCC3)nc(NC(c3ccccc3)c3ccccc3)c2CN1C1CC1 = F
• CC(=O)N1CCN(c2nc3c(c(N(C)C(C)c4ccc5ncccc5c4)n2)CN(C(C)C)C3=O)CC1 (single isomer, unassigned) [Example 261] = T
• COc1cc(C(F)(F)F)ccc1CNc1nc(N2CCN(C(C)=O)CC2)nc2c1CN(C(C)C)C2=O = F
• CCN(Cc1cnc2ccccc2c1)c1nc(N2CCN(C(C)=O)CC2)nc2c1CN(C(C)C)C2=O = T
• CC(=O)N1CCN(c2nc(NCc3ccc(OC(F)(F)F)cc3C)c3c(n2)C(=O)N(C(C)C)C3)CC1 = F
• COc1cc(OC(C)C)ccc1[C@@H](C)Nc1nc(N2CCN(C(C)=O)CC2)nc2c1CN(C(C)C)C2=O = T
• CC(=O)N1CCN(c2nc(NCc3nnc(-c4ccccc4)o3)c3c(n2)C(=O)N(C(C)C)C3)CC1 = F
• CCOc1ccc([C@@H](C)Nc2nc(N3CCN(C(C)=O)CC3)nc3c2CN(C(C)C)C3=O)cc1Cl = T
• CC(C)N1Cc2c(NC(c3ccc(F)cc3)c3ccc(F)cc3)nc(N(C)CCN(C)C)nc2C1=O = F
• CC(=O)N1CCN(c2nc3c(c(N4CCCC4c4cnc5ccccc5c4)n2)CN(C(C)C)C3=O)CC1 (single isomer, unassigned) [Example 283] = T
• CC(C)N1Cc2c(Nc3ccc(Cl)cc3)nc(N3CCN(C(=O)CC4NC(=O)NC4=O)CC3)nc2C1=O (stereo not shown) = F
• COc1ccc(CC2CCCN2c2nc(N3CCN(C(C)=O)CC3)nc3c2CN(C(C)C)C3=O)cc1 (single isomer, unassigned) [Example 287] = T
• CC(=O)N1CCN(c2nc(NC(C)(C)Cc3ccc(F)cc3)c3c(n2)C(=O)N(C(C)C)C3)CC1 = F
• CC(=O)N1CCN(c2nc(NCC3(c4ccc(Cl)cc4)CCCC3)c3c(n2)C(=O)N(C(C)C)C3)CC1 = F
